All figures here come from the RNAGym collection of RNA variant scans (doi:10.1126/science.aae0568).

B1: tRNA (parent)
chain: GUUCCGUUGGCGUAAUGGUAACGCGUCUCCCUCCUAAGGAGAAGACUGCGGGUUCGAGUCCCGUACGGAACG

- Variants of: B1
- ASSAY NAME: yeast fitness relative to wild type (ratio to wild type); higher = fitter; tRNA-Arg(CCU), competitive growth, 37 C, YPD
Fewer inactive variants are shown than the library holds.

- SEQ: "GUUCCGUCGGCGUAACGGUACCGCGUCUCCCUCCUAAGGAGAAGACUGAGGGUUCGAAUCCCGUAUGAAACG"
  REL: "≤"
  yeast fitness: 0.5
- SEQ: "GUCCCGUUGGCGUACUGGUAACGCGUCUCCCUCCUAAAGAGAAGACUGCGGGUACGUGUCCCGUACGGAACG"
  REL: "≤"
  yeast fitness: 0.5
- SEQ: "GUUCUGUUGGCGUAAUGGUAUCGCGUCUCCCUCCUAAGGAGAAGACUGCGGGUUCGAGUCCUGUACGGACCG"
  REL: "≤"
  yeast fitness: 0.5
- SEQ: "GUUCGGUUCGCGUAAUGGUAACGCGUCUCCCUCCUAAGGAGAAGACUGCGGGUUCGACUCCCGUACGGAACG"
  REL: "≤"
  yeast fitness: 0.5
- SEQ: "GUUCCGUUGGCGUAAUGGUAACGCGUGUCCCUCCUAAGGAAAAGACUGCGGGUUCGAGUCCCGUACGCAACG"
  REL: "="
  yeast fitness: 0.71
- SEQ: "GUUCCGUUGGCGUAAUGGUAACGCCACUCCCUCCUAAGGAGAAGACUGCGGGUUCGAGUCACGUACGGAACG"
  REL: "≤"
  yeast fitness: 0.5
- SEQ: "GUUCCGUUGGCGUAAUGGUAACGCGUCUCCCUCCUAAGGAGAAGGCUGUGGGUUCGAGUCCCGUACGGUACG"
  REL: "="
  yeast fitness: 1.04
- SEQ: "GUUGCGUUGGCGUAAUGGUAACGCGUCUCCCUCCUAAGGAGAAGACUGCGGGUUCGUGUCCCGUACGGAUCG"
  REL: "="
  yeast fitness: 0.869
- SEQ: "GUUCCGUUGGCGUAAUGGUGACGCGUCUCCCUCCUGAGGAGAAGACUGCGGGUUCGAGUCCCGUACGGAACG"
  REL: "="
  yeast fitness: 1.01
- SEQ: "GUUCUGUUGGCGUAAUGGUAGCGCGUCUCCCUCCUAAGGAGUAGACUGCGGGUUCGAAUCCCGUACGGAACG"
  REL: "="
  yeast fitness: 1.02
- SEQ: "GAUCCGUUGGCGUAUAGGUAACGCGUCUCCCUCCUAAGGAGAAGACUGCGGGUUCGAGUUCGGUCCGGUACG"
  REL: "≤"
  yeast fitness: 0.5
- SEQ: "GUUCCGUUGGCGUGAUGGUAACCCGUCUGCCUCCUAAGGAGAAGACUGCGGGUUCGAGUCCCCUAGGGAACG"
  REL: "≤"
  yeast fitness: 0.5
- SEQ: "GUUCCGUUAGCGUAAUGGUAACGCGUCUGCCUCCUAAGGAGAAGACUGCGGGGUCGAGUCCCGUACGGAACG"
  REL: "≤"
  yeast fitness: 0.5
- SEQ: "GUUCCGUUGGCGUAAUGGUAUCGCGUCUCCCUCCUAAGGAGAAGACUGCGGGUUCGAGUCCCGUCCGGAACG"
  REL: "="
  yeast fitness: 0.793
- SEQ: "GUUCCGUUGGCGUUAUGGUUACGCGUCUCCCUCCUAAGGAGAAGACUGUGGGUUCGAGUCCCGUACGGAACG"
  REL: "≤"
  yeast fitness: 0.5
- SEQ: "GUUCCGUUGGCGUAAUGGUAACGCGUCUCCCUGCUAGGGAGAAGAAUGUGGGUUCGAGUCCCGUACGGAACG"
  REL: "≤"
  yeast fitness: 0.5
- SEQ: "GUUCCGUUGGCGUAAUGGUAACGCGUGUCCCUCGUAAGGAGAAGGCUGCGCGUUCGAGUCCCGUACGGAGCG"
  REL: "≤"
  yeast fitness: 0.5
- SEQ: "GUUCCGUUAGCGUAAUGGUAACGCGUCUCCCUCCUAAGGUGAAGACUGCGGGUUCGAGUCCCGUUCGGAACG"
  REL: "="
  yeast fitness: 0.718
- SEQ: "GUUCCGUUGGCGUAAUGGUAACGCGUCUCACUCCUAAGGAGAAGACUCCGGGUUCGAGUCCCGUACGGAACG"
  REL: "="
  yeast fitness: 0.797
- SEQ: "GUUCCGUUGGCAUAAUGGUAACGCGUCUCCCUACUAAGGAGAAGACUGCGGGUUCGAGUCCCGUACGGAACG"
  REL: "="
  yeast fitness: 0.644
- SEQ: "GUUCCGUUGGCGUAAUGGUAACGCGUGUCUAUGCUAAGGAGAAGACUGUGGGUUCGACUCCCGUACGGAACG"
  REL: "≤"
  yeast fitness: 0.5
- SEQ: "GUUCCGUUGGCGUAAAGGUAACGUGUCUCCCUCAUAAGGAGAAGACUGCGGGUUCGAGUCCCGUACGGAACG"
  REL: "="
  yeast fitness: 0.656
- SEQ: "GUUCCGUUGGCGUAAUGGUUACGCGUCUCCCUCCUCAGGAGAAGACUGCGGGUUCGAGUACCGUACGGAACG"
  REL: "≤"
  yeast fitness: 0.5
- SEQ: "GUUCCGUUGGCGUAAUGGUACCGCGUCUCCCUCCUAAGGAGAAGACAGCGGCUUCGAGUCCCGUACGGAACG"
  REL: "="
  yeast fitness: 0.662
- SEQ: "GUUCGGUUGGCAUAAUGGUAACGCGUCUCCCUCCUAAGGAGAAGACUGGGGGUUCGAGUCCCGUACGCAACG"
  REL: "≤"
  yeast fitness: 0.5
- SEQ: "GUUCCGUUGGCGUAAUGGUAACGCGUAUCCCUCCUAAGGAGAAGACUGAGGGUUCCAGUCCCGUGCGGAACG"
  REL: "≤"
  yeast fitness: 0.5
- SEQ: "GAUCCGUUGGCGUAAUGGUAACGCGUCUCCCUCCUAAGGAGAAGAAUGCGGGUUCGAAUCCCGUACGGAACG"
  REL: "="
  yeast fitness: 0.622
- SEQ: "GUUACGUUGGCGUAAUGGUAACGCGUCUCCCUCGUAAGCAGAAGACUGCGGGUUCGAGUCCCGUACGGAACG"
  REL: "≤"
  yeast fitness: 0.5
- SEQ: "GUUCCGUUGGGAUAAUGGUAACGCGUGUCCCUCCUAAGGAGAAGACUGCGGGUUCGAGUCCCGUACGGAACG"
  REL: "="
  yeast fitness: 0.669
- SEQ: "GUUCCGUUGGCGUUAUGGUAACGCGUUUCCCUCCUAAGGAGAAGACUGCGGGUUGGAGUCCCGUACGAAACG"
  REL: "≤"
  yeast fitness: 0.5
- SEQ: "GUUCCGUUGGCGUAAUGGUAACGCGUCUCCCUCGUAAGGAGAAGACUGCGGGUUCGAGUCCCAUACAGAACG"
  REL: "≤"
  yeast fitness: 0.5
- SEQ: "GUUCCGUUGGCGUAACGGUAACGCGUCUCCCUCCUAAGGAGAAGACAGAGGGUUCGAGUCCUGUACGGAACG"
  REL: "="
  yeast fitness: 0.778
- SEQ: "GUUCCGUUGGCGUAAUGGUAACGCGUCUCCGUCCUCAGGAGAAGACUGCAGGUUCGAGUCCUGUACGACACG"
  REL: "≤"
  yeast fitness: 0.5
- SEQ: "GAUCCGUUAGCGUAAUGGUCACGUGUCUCCCUCCUAAGGAGAAGACUGCGGGUUCGAGUCCCGUACGGAACG"
  REL: "≤"
  yeast fitness: 0.5
- SEQ: "GUCCCGUUGGCGUAUUGGUAACGCGUCUCUCUCCUAAGGAGAAGACUGCGGGUUCGAGUCCCGUACGGAACG"
  REL: "="
  yeast fitness: 0.57
- SEQ: "GUUCCGUUGGCGUAAUGGGAACGCGUCUCCCUCCCAAGGAGACGACUGCGGCUACGAGUCCCGUACGGAACG"
  REL: "≤"
  yeast fitness: 0.5
- SEQ: "GUUCCGUUGGCGUAAUGGUAACGCGUCUCCCUCCUAAGGAGAAGAUUGGGGGUUCGAGUCCCGUACGAAACG"
  REL: "="
  yeast fitness: 0.64
- SEQ: "GUUCCGUUGGCGUAAUGGUAACGCGUCUCCCUCCUAAGGAGGAGACUGCGGGUUCGAGUCACGUACGGAACG"
  REL: "="
  yeast fitness: 0.553
- SEQ: "GUUCCGUUGGCGUAAUGGUAACGCGUCUCCCUCCUAAGGAGAAGACUGCGGAUUCGACUCCCGUACGGAACG"
  REL: "="
  yeast fitness: 0.801
- SEQ: "GUUCCGUUGGCGUAAUGGUAAGACGUCUCCCUCCUAAGGAGAAGAUUGCGGGUUCGGGUCCCGUACGGAACG"
  REL: "≤"
  yeast fitness: 0.5
- SEQ: "GUACCGUUGGCGUAAUGGUAACGGGUCUCCCUGCUAAGGAGAAGACUGCGGGUUUGAGUCCCGUACGGAACG"
  REL: "≤"
  yeast fitness: 0.5
- SEQ: "GUUCCGUUGGCGUAAUGGCAACGCGUCUCCCUCAUAAGGAGAAGACUGCCGGUUCAAGUCCCGUACGGAACG"
  REL: "="
  yeast fitness: 0.55
